Where do these numbers come from? They come from patent US7714023B2.

Values of IC50 reported for 5-HT transporter (Rattus norvegicus, UniProt P31652) appear below.
Write down the numeric answer in nM and omit the unit.

Illustrative cases are given below, each with its answer.
> print(dat)
                                   compound  recorded.metric  endpoint.result
1  CNCCC[C@@]1(c2ccc(F)cc2)OCc2cc(C#N)ccc21 [(S)(+)-Desmethylcitalopram]             IC50              1.3
2  CNCCC[C@]1(c2ccc(F)cc2)OCc2cc(C#N)ccc21 [(R)(−)-Desmethylcitalopram]             IC50               11
3  N#Cc1ccc2c(c1)CO[C@]2(CCCN)c1ccc(F)cc1 [(R)(−)-Didesmethylcitalopram]             IC50               27

In the following, a different compound is considered.
*Q* State IC50 on 5-HT transporter (Rattus norvegicus, UniProt P31652). Entry: N#Cc1ccc2c(c1)CO[C@@]2(CCCN)c1ccc(F)cc1 [(S)(+)-Didesmethylcitalopram]
Sequence (P31652 whole entry): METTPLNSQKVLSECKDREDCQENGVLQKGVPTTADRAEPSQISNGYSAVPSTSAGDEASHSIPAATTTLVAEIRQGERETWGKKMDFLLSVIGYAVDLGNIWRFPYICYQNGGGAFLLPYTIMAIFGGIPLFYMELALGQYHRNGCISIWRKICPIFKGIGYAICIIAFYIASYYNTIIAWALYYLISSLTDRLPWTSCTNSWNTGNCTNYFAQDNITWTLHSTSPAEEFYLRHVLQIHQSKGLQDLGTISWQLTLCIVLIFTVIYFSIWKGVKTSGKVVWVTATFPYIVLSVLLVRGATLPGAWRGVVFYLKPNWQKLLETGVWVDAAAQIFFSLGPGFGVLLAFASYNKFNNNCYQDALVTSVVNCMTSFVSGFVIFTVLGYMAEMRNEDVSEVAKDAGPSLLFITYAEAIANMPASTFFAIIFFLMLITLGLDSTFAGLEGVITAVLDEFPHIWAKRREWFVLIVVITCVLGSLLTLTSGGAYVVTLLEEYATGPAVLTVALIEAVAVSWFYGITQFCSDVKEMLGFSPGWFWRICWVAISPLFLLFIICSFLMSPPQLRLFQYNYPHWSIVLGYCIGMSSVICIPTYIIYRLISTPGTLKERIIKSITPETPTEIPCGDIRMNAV
*A* 19

###

Catalogue of pIC50 values
# System: 5-HT transporter (h) (Homo sapiens)
# Construct: expressed in transfected cells; host or cells: HEK 293 cells
# Sequence (P31645 whole entry): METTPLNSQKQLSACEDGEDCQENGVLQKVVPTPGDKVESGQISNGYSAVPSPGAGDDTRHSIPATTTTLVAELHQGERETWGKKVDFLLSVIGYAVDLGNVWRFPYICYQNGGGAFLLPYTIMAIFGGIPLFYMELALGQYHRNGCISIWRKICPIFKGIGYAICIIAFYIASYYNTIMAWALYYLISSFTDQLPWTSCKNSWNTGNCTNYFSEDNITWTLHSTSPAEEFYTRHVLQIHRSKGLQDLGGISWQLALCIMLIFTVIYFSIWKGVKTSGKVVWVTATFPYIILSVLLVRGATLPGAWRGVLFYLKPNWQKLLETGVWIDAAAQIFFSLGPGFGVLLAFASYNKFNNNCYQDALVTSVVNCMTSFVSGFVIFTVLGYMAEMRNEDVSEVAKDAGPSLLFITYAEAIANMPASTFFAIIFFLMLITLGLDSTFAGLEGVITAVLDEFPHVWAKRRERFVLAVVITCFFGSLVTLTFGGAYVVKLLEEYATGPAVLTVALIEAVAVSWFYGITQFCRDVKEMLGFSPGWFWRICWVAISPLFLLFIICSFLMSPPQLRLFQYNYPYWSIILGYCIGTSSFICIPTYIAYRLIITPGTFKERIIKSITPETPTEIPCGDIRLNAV
# Type: binding
# Condition notes: Table 2, ten concentrations; read-out: Transporter and Muscarinic Receptor Binding IC50 5-HT human
Quick note: pIC50 means taking -log10 of the concentration in moles per liter.

> print(dat)
                                   molecule                               system  endpoint.result
1  N#Cc1ccc2c(c1)CO[C@]2(CCCN)c1ccc(F)cc1 [(R)(−)-Didesmethylcitalopram]  5-HT transporter (h) (Homo sapiens)             7.85

Now turn to the next molecule.
*Q* Please indicate pIC50 recorded for N#Cc1ccc2c(c1)CO[C@@]2(CCCN)c1ccc(F)cc1 [(S)(+)-Didesmethylcitalopram]
*A* 6.66

###

# System: NE transporter (h) (Homo sapiens)
# Construct: expressed in transfected cells; host or cells: MDCK cells
# Run description: NE transporter (h) binding, [3H]nisoxetine
# Condition notes: Table 1, racemic forms, duplicate; read-out: Transporter Binding IC50 NE
Recorded metric: pIC50
As a rule, pIC50 stands for the negative log10 of the concentration, concentration in M.

> print(dat)
                                   compound  recorded.metric  endpoint.result
1  N#Cc1ccc2c(c1)COC2(CCCN)c1ccc(F)cc1 (racemic) [Racemic didesmethylcitalopram]            pIC50             4.67

Let us move to another entry and its pIC50.
*Q* Give recorded pIC50. CNCCCC1(c2ccc(F)cc2)OCc2cc(C#N)ccc21 (racemic) [Racemic desmethylcitalopram]
*A* 4.81

###

# System: NE transporter (h) (Homo sapiens, UniProt P23975)
# Construct: expressed in transfected cells; host or cells: MDCK cells
# Sequence (P23975 whole entry): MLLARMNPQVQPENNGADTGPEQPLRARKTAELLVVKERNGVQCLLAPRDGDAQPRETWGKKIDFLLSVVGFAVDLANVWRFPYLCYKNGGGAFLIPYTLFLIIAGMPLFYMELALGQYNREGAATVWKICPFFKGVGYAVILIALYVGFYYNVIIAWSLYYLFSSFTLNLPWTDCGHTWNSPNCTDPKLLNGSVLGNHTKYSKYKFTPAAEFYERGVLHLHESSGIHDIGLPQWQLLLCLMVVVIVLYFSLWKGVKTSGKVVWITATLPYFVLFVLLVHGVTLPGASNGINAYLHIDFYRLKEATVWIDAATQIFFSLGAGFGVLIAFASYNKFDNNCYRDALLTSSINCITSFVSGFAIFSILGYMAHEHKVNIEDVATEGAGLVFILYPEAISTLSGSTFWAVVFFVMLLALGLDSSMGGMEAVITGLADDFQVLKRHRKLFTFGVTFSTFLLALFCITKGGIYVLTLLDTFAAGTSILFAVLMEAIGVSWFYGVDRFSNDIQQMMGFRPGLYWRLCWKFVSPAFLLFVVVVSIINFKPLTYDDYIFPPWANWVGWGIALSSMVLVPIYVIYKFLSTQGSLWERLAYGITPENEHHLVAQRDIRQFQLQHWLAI
# Run description: NE transporter (h) binding, [3H]nisoxetine
# Condition notes: Table 3, human recombinant MDCK cells, [3H]-nisoxetine; read-out: Human Transporter Binding IC50 NE
# pIC50 per entry
The quantity pIC50 is defined as the negative base-10 logarithm of the molar concentration.

Record excerpt, results attached:
> print(dat)
                                   compound  recorded.metric  endpoint.result
1  N#Cc1ccc2c(c1)CO[C@@]2(CCCN)c1ccc(F)cc1 [(S)(+)-Didesmethylcitalopram]            pIC50             4.62
2  N#Cc1ccc2c(c1)CO[C@]2(CCCN)c1ccc(F)cc1 [(R)(−)-Didesmethylcitalopram]            pIC50             5.26
3  CNCCC[C@@]1(c2ccc(F)cc2)OCc2cc(C#N)ccc21 [(S)(+)-Desmethylcitalopram]            pIC50             4.99

*Q* Recall and state the measured pIC50 for CNCCC[C@]1(c2ccc(F)cc2)OCc2cc(C#N)ccc21 [(R)(−)-Desmethylcitalopram] .
*A* 6.09
